test system: SW-620 colon; test: NCI-60 one-dose screen, 48 h (100 = growth as untreated, 0 = no growth, -100 = all killed); settings: 10 µM unless noted
Compounds without any hit were thinned out: in the full panel of roughly 83,000, 20% have a hit.
Assay metric: growth (%)
Could you give me the number in %? Just the number is fine.

// below: answered compounds
O=C(Nc1ccc(Cl)cn1)C1(c2ccccc2)CCCCC1	96.6
COc1cc(OC)c2c(=O)cc(-c3ccccc3)oc2c1	89.7
C/C(=C\c1ccc2ccccc2c1)[N+](=O)[O-]	-33.8
CCOc1ccc2nc3ccc(Cl)cc3nc2c1	91
Oc1ccc(Br)cc1/C=N/NC(=S)NC12CC3CC(CC(C3)C1)C2	-24.8

What measured growth is associated with CCN(CC)CCCC(C)Nc1c(C)cnc2cc(Cl)c(C)cc12 (configuration not stated) on SW-620 colon? 85.9

Record CCOC(=O)C1=C(c2ccccc2)NC(=O)NC1CN1C(=O)c2ccccc2C1=O (configuration not stated) : what is its growth with SW-620 colon? 107

What growth appears in the records for this compound with SW-620 colon? Clc1ccc(I)c2ccccc12 107

Hi! What's the reported growth for CCOC(=O)c1sc(NS(=O)(=O)c2ccccc2)nc1C on SW-620 colon? 111

Find the measured growth: item COc1cc(N)c2nccc(C)c2c1OC , target or system SW-620 colon. 94.1

Enter reported growth observed with SW-620 colon for N#Cc1c2cccnc2c2nnc3cc(Cl)c(Cl)cc3n12 -39
